Test system: cancer cell lines from the cancer cell line encyclopedia (CCLE)
Test: Cell line profiling (CLiP) proliferation experiment
Assay type: cell-based
Settings: KASUMI-2; read-out: Crossing Point
endpoint name: pIC50
Numbers only, as −log10 of the molar value.

For the compound shown here, CC(C)[C@@]12C[C@@H](O)[C@@](C)(O1)[C@@H]1CC[C@@H](C)[C@H]1[C@@H]2OC(=O)/C=C/c1ccccc1 , give the reported pIC50. 4.80

###

Test system: cancer cell lines from the cancer cell line encyclopedia (CCLE)
Assay: Cell line profiling (CLiP) proliferation experiment
Format: cell-based
Conditions: Loucy (haematopoietic_and_lymphoid_tissue); read-out: Inflection Point
endpoint name: EC50 (µM)
Give bare numbers, in µM.

Find EC50 (cancer cell lines from the cancer cell line encyclopedia (CCLE)) for the entry CC(C)[C@@]12C[C@@H](O)[C@@](C)(O1)[C@@H]1CC[C@@H](C)[C@H]1[C@@H]2OC(=O)/C=C/c1ccccc1 12.2

###

Test system: cancer cell lines from the cancer cell line encyclopedia (CCLE)
Experiment: Cell line profiling (CLiP) proliferation experiment
Format: cell-based
Details: Homo sapiens, NCI-H2122, NCI-H2122, lung, adenocarcinoma; read-out: Crossing Point
pIC50: −log10 of the molar value.
endpoint name: pIC50

Find pIC50 (cancer cell lines from the cancer cell line encyclopedia (CCLE)) for the entry CC(C)[C@@]12C[C@@H](O)[C@@](C)(O1)[C@@H]1CC[C@@H](C)[C@H]1[C@@H]2OC(=O)/C=C/c1ccccc1 < 4.52

###

Tested on: cancer cell lines from the cancer cell line encyclopedia (CCLE)
Assay: Cell line profiling (CLiP) proliferation experiment
Type: cell-based
Settings: Homo sapiens, NCI-H1563, cell line NCI-H1563 (lung); read-out: Inflection Point
endpoint name: pEC50
One number for each entry, as −log10 of the molar value.

For the compound shown here, CC(C)[C@@]12C[C@@H](O)[C@@](C)(O1)[C@@H]1CC[C@@H](C)[C@H]1[C@@H]2OC(=O)/C=C/c1ccccc1 , give the reported pEC50. 5.00

###

System: cancer cell lines from the cancer cell line encyclopedia (CCLE)
Experiment: Cell line profiling (CLiP) proliferation experiment
Assay type: cell-based
Conditions: Homo sapiens, TE-15, TE-15 (oesophagus, squamous_cell_carcinoma); read-out: Crossing Point
endpoint name: IC50 (µM)
One number for each entry, in µM.

For the compound shown here, CC(C)[C@@]12C[C@@H](O)[C@@](C)(O1)[C@@H]1CC[C@@H](C)[C@H]1[C@@H]2OC(=O)/C=C/c1ccccc1 [Englerin B] , give the reported IC50. 26

###

Tested on: cancer cell lines from the cancer cell line encyclopedia (CCLE)
Assay: Cell line profiling (CLiP) proliferation experiment
Format: cell-based
Settings: Homo sapiens, HPBALL, cell line HPB-ALL (haematopoietic_and_lymphoid_tissue, acute_lymphoblastic_T_cell_leukaemia); read-out: Crossing Point
Method: Compound profiling experiment and data analysis was performed as previously described. Data was imported and plotted using the Tibco Spotfire DXP application. Lines were categorized as sensitive, intermediate and refractory as follows: Amax<-40 & Inflection Point <2 ~ Sensitive, Amax>-20 & Inflection Point >10 ~ Refractory, all else were called Intermediate. Cancer Cell line HG-U133 Plus 2 data was processed and normalized as described. […]
endpoint name: pIC50
Numbers only, as −log10 of the molar value.

For the compound shown here, CC(C)[C@@]12C[C@@H](O)[C@@](C)(O1)[C@@H]1CC[C@@H](C)[C@H]1[C@@H]2OC(=O)/C=C/c1ccccc1 , give the reported pIC50. 4.76

###

Tested on: cancer cell lines from the cancer cell line encyclopedia (CCLE)
Assay: Cell line profiling (CLiP) proliferation experiment
Format: cell-based
Settings: Homo sapiens, KYSE-70, KYSE-70 (oesophagus); read-out: Crossing Point
endpoint name: IC50 (µM)
Numbers only, in µM.

For the compound shown here, CC(C)[C@@]12C[C@@H](O)[C@@](C)(O1)[C@@H]1CC[C@@H](C)[C@H]1[C@@H]2OC(=O)/C=C/c1ccccc1 [Englerin B] , give the reported IC50. 28.2

###

System: cancer cell lines from the cancer cell line encyclopedia (CCLE)
Assay: Cell line profiling (CLiP) proliferation experiment
Format: cell-based
Details: Homo sapiens, NCI-H1651, NCI-H1651 cells; read-out: Crossing Point
endpoint name: IC50

Find IC50 (cancer cell lines from the cancer cell line encyclopedia (CCLE)) for the entry CC(C)[C@@]12C[C@@H](O)[C@@](C)(O1)[C@@H]1CC[C@@H](C)[C@H]1[C@@H]2OC(=O)/C=C/c1ccccc1 [Englerin B] > 30 µM

###

System: cancer cell lines from the cancer cell line encyclopedia (CCLE)
Assay: Cell line profiling (CLiP) proliferation experiment
Assay type: cell-based
Conditions: cell line OMM2.3; read-out: Crossing Point
pIC50: −log10 of the molar value.
endpoint name: pIC50

For the compound shown here, CC(C)[C@@]12C[C@@H](O)[C@@](C)(O1)[C@@H]1CC[C@@H](C)[C@H]1[C@@H]2OC(=O)/C=C/c1ccccc1 , give the reported pIC50. < 4.52

###

Tested on: cancer cell lines from the cancer cell line encyclopedia (CCLE)
Experiment: Cell line profiling (CLiP) proliferation experiment
Assay type: cell-based
Conditions: cell line HLF, liver; read-out: Crossing Point
pIC50: −log10 of the molar value.
endpoint name: pIC50

For the molecule shown here, CC(C)[C@@]12C[C@@H](O)[C@@](C)(O1)[C@@H]1CC[C@@H](C)[C@H]1[C@@H]2OC(=O)/C=C/c1ccccc1 , give the reported pIC50. < 4.52

###

System: cancer cell lines from the cancer cell line encyclopedia (CCLE)
Experiment: Cell line profiling (CLiP) proliferation experiment
Assay type: cell-based
Conditions: COV644 cells; read-out: Inflection Point
endpoint name: pEC50
Numbers only, as −log10 of the molar value.

For the molecule shown here, CC(C)[C@@]12C[C@@H](O)[C@@](C)(O1)[C@@H]1CC[C@@H](C)[C@H]1[C@@H]2OC(=O)/C=C/c1ccccc1 , give the reported pEC50. 5.52

###

Test system: cancer cell lines from the cancer cell line encyclopedia (CCLE)
Test: Cell line profiling (CLiP) proliferation experiment
Assay type: cell-based
Conditions: SUM52PE, SUM52PE (breast); read-out: Crossing Point
pIC50: −log10 of the molar value.
endpoint name: pIC50

Find pIC50 (cancer cell lines from the cancer cell line encyclopedia (CCLE)) for the entry CC(C)[C@@]12C[C@@H](O)[C@@](C)(O1)[C@@H]1CC[C@@H](C)[C@H]1[C@@H]2OC(=O)/C=C/c1ccccc1 < 4.52

###

System: cancer cell lines from the cancer cell line encyclopedia (CCLE)
Test: Cell line profiling (CLiP) proliferation experiment
Format: cell-based
Settings: Homo sapiens, GAMG, GAMG (central_nervous_system); read-out: Crossing Point
Procedure: Compound profiling experiment and data analysis was performed as previously described. Data was imported and plotted using the Tibco Spotfire DXP application. Lines were categorized as sensitive, intermediate and refractory as follows: Amax<-40 & Inflection Point <2 ~ Sensitive, Amax>-20 & Inflection Point >10 ~ Refractory, all else were called Intermediate. Cancer Cell line HG-U133 Plus 2 data was processed and normalized as described. […]
endpoint name: IC50

For the compound shown here, CC(C)[C@@]12C[C@@H](O)[C@@](C)(O1)[C@@H]1CC[C@@H](C)[C@H]1[C@@H]2OC(=O)/C=C/c1ccccc1 , give the reported IC50. > 30 µM

###

System: cancer cell lines from the cancer cell line encyclopedia (CCLE)
Test: Cell line profiling (CLiP) proliferation experiment
Format: cell-based
Details: Homo sapiens, CAKI-1, cell line Caki-1; kidney; clear_cell_renal_cell_carcinoma; read-out: Crossing Point
pIC50: −log10 of the molar value.
endpoint name: pIC50

For the compound shown here, CC(C)[C@@]12C[C@@H](O)[C@@](C)(O1)[C@@H]1CC[C@@H](C)[C@H]1[C@@H]2OC(=O)/C=C/c1ccccc1 [Englerin B] , give the reported pIC50. < 4.52

###

System: cancer cell lines from the cancer cell line encyclopedia (CCLE)
Assay: Cell line profiling (CLiP) proliferation experiment
Format: cell-based
Conditions: Homo sapiens, 8305C, 8305C (thyroid); read-out: Crossing Point
pIC50: −log10 of the molar value.
endpoint name: pIC50

For the compound shown here, CC(C)[C@@]12C[C@@H](O)[C@@](C)(O1)[C@@H]1CC[C@@H](C)[C@H]1[C@@H]2OC(=O)/C=C/c1ccccc1 , give the reported pIC50. < 4.52

###

System: cancer cell lines from the cancer cell line encyclopedia (CCLE)
Assay: Cell line profiling (CLiP) proliferation experiment
Assay type: cell-based
Conditions: Homo sapiens, CMK, CMK cells; read-out: Crossing Point
endpoint name: IC50

For the compound shown here, CC(C)[C@@]12C[C@@H](O)[C@@](C)(O1)[C@@H]1CC[C@@H](C)[C@H]1[C@@H]2OC(=O)/C=C/c1ccccc1 , give the reported IC50. > 30 µM

###

Test system: cancer cell lines from the cancer cell line encyclopedia (CCLE)
Assay: Cell line profiling (CLiP) proliferation experiment
Format: cell-based
Details: Homo sapiens, PF-382, cell line PF-382; read-out: Crossing Point
endpoint name: IC50 (µM)
Numbers only, in µM.

For the compound shown here, CC(C)[C@@]12C[C@@H](O)[C@@](C)(O1)[C@@H]1CC[C@@H](C)[C@H]1[C@@H]2OC(=O)/C=C/c1ccccc1 , give the reported IC50. 16.6
